We begin with a simple list: items and their reported IC50.
target: Human αvβ3 (Homo sapiens, UniProt P05106+P06756); construct: purchased Chemicon International Inc., Temecula, Calif; experiment: In vitro solid phase purified αvβ3 binding assay (vitronectin/αvβ3); conditions: read-out: Antagonist IC50 Activity αVβ3
Sequence (P06756 31-889 limits assumed): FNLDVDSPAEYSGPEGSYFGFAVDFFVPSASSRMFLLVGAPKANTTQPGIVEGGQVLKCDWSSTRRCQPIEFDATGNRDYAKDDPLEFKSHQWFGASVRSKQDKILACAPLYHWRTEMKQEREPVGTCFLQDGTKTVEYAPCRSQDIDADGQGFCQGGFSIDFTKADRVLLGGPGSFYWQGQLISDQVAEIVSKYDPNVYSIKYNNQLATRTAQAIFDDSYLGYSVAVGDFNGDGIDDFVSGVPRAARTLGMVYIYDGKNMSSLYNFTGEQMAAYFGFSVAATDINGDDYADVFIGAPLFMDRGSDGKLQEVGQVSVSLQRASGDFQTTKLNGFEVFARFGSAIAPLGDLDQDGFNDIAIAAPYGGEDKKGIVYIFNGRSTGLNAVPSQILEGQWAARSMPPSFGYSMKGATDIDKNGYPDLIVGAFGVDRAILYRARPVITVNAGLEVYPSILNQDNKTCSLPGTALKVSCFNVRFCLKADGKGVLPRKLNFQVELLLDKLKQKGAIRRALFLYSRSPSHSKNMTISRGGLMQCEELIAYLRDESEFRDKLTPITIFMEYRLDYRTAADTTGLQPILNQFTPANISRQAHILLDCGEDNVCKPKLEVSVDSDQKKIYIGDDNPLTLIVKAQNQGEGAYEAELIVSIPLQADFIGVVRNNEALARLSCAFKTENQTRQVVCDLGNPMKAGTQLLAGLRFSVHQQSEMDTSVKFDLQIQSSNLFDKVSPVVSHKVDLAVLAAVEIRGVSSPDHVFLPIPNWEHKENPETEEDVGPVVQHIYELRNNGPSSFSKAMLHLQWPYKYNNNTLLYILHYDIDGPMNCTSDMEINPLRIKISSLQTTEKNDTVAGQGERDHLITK
Sequence (P06756 891-1048 partner limits assumed): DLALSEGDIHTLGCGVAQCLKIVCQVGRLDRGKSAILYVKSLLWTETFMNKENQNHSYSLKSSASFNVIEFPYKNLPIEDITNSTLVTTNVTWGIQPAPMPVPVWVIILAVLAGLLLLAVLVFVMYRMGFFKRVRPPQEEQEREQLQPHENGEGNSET
Sequence (P05106 27-788): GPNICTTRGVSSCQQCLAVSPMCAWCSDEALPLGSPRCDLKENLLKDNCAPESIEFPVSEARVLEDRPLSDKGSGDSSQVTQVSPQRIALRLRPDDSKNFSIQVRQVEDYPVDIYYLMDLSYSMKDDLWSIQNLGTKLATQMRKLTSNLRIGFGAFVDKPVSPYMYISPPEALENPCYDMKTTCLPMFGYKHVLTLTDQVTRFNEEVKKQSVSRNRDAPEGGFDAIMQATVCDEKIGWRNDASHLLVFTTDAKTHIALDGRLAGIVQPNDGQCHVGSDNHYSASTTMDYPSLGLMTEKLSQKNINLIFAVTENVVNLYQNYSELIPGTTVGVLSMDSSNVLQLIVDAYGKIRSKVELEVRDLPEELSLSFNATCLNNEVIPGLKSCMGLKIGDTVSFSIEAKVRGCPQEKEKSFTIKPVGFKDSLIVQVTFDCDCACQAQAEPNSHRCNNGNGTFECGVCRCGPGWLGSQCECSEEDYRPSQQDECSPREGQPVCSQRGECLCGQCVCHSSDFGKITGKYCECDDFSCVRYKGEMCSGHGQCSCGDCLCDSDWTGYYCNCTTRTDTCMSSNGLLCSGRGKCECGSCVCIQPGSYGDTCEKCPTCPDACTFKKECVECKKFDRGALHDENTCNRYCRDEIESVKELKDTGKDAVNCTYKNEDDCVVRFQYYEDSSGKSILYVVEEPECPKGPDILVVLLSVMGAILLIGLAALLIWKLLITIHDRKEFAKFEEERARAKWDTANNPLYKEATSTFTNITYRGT
Give the value in nM but do not write nM after it.

A selection of reference data follows.
>  <molecule>
O=C(O)CC1c2ccccc2C2CN(C(=O)CCCc3ccc4c(n3)NCCC4)CCC12 (racemic) [Cpd 3]

>  <tgt>
Human αvβ3 (Homo sapiens, UniProt P05106+P06756)

>  <displayUnit>
nM

>  <IC50>
85

$$$$
>  <molecule>
O=C(O)C[C@H]1c2ccccc2[C@@H]2CN(C(=O)CCc3ccc4c(n3)NCCC4)C[C@H]12 [Cpd 14]

>  <tgt>
Human αvβ3 (Homo sapiens, UniProt P05106+P06756)

>  <displayUnit>
nM

>  <IC50>
17

$$$$
>  <molecule>
O=C(O)CC1c2ccccc2C2CN(C(=O)CCc3ccc4c(n3)NCCC4)CC12 (single isomer, unassigned) [Cpd 13]

>  <tgt>
Human αvβ3 (Homo sapiens, UniProt P05106+P06756)

>  <displayUnit>
nM

>  <IC50>
290

$$$$

Given the entry O=C(O)CC1c2ccccc2C2CN(C(=O)CCc3ccc4c(n3)NCCC4)CCC12 (racemic) [Cpd 4] , report its measured IC50.
87
